Ref: patent US20220259289A1

- assayedSystem: T1, recombinant biotinylated CD137 protein (Fc-fusion protein, R&D Systems 838-4B) (human, UniProt Q07011 24-186, biotinylated, sites not stated)
- T1 construct: Bought Fc fusion; also called CD137-Fc
- methodNotes: ELISA, lysate on biotinylated CD137-Fc
measurementName: ELISA CD137 (RLU)
Unit RLU implied. Number only.

Observe how each entry below is paired with its result.
- binder: "ISOP193AR9P1G5 (designed binder, not shown: small tags and cut ends) LPAPKNLVVSRVTEDSARLSWRISDRLPLFDSFLIQYQESEKVGEAIVLTVPGSERSYDLTGLKPGTEYTVSIYGVGRHYTVYDSNPLSAIFTT"
  readoutUnits: "RLU"
  recordedResult: "4.02e+06"
- binder: "ISOP193FR9P1H9 (designed binder, not shown: small tags and cut ends) LPAPKNLVVSRVTEDSARLSWTAPDAAFDSFEIYYDELRNPGEAIVLTVPGSERSYDLTGLKPGTEYAVTIYGVKGGRYSPPLSAIFTT"
  readoutUnits: "RLU"
  recordedResult: "2.42e+06"
- binder: "ISOP193FR9P1G7 (designed binder, not shown: small tags and cut ends) LPAPKNLVVSRVTEDSARLSWTAPDAAFDSFHIHYLEGEWGGEAIVLTVPGSERSYDLTGLKPGTEYLVTIYGVKGCDWSDPLSAIFTT"
  readoutUnits: "RLU"
  recordedResult: "5.5e+06"

Now look at this one.
Form: binder = ISOP193AR9P1A6 (designed binder, not shown: small tags and cut ends) LPAPKNLVVSRVTEDSARLSWKFGEVAFDSFLIQYQESEKVGEAIVLTVPGSERSYDLTGLKPGTEYTVSIYGVGRHYTVYDSNPLSAIFTT ; ELISA CD137 (RLU) = 6.74e+06
